protocol.details: in vivo
Parameters: species or system mice
measurement.setup: male, NOD.Cg-Rag1tm1Mom Il2rgtm1Wjl/SzJ (NRG), mouse, iv, total radioactivity, Biodistribution: Lungs
Where a SMILES comes first, the peptide text is derived from it. Bridges are numbered along the chain shown (N, C = ends). Side-chain parts run from the residue outwards. [ ]: non-standard residue; d: D form. The star is where a group is joined. X4 = O=C(O)CN1CCN(CC(=O)O)CCN(CC(=O)N[C@@H](CS(=O)(=O)O)C(=O)NCCCC[C@H](NC(=O)CNC(=O)CCCc2ccc(Cl)cc2)C(=O)*)CCN(CC(=O)O)CC1; X6 = COc1ccc(CCCC(=O)NCCCC[C@H](NC(=O)[C@H](CS(=O)(=O)O)NC(=O)CN2CCN(CC(=O)O)CCN(CC(=O)O)CCN(CC(=O)O)CC2)C(=O)*)cc1; DOTA = O=C(O)CN1CCN(CC(=O)O)CCN(CC(=O)*)CCN(CC(=O)O)CC1; NMeLys(iPr) = CN[C@@H](CCCCNC(C)C)C(=O)O; 2Nal = N[C@@H](Cc1ccc2ccccc2c1)C(=O)O; Lys(iPr) = CC(C)NCCCC[C@H](N)C(=O)O; Cya = N[C@@H](CS(=O)(=O)O)C(=O)O
I'd appreciate it if you could supply tissue uptake at 1 h values for the items below.
Remember to follow the number with its unit.

Use these answered entries as a reference point.
compound	measure	assay.result
COc1ccc(CCCC(=O)NCCCC[C@H](NC(=O)[C@H](CS(=O)(=O)O)NC(=O)CN2CCN(CC(=O)O)CCN(CC(=O)O)CCN(CC(=O)O)CC2)C(=O)NCCCC[C@@H]2NC(=O)CC[C@H](C(=O)N[C@@H](CCCCNC(C)C)C(N)=O)NC(=O)[C@@H](C)NC(=O)[C@H](Cc3ccc4ccccc4c3)NC(=O)[C@@H](CCCNC(=N)N)NC(=O)[C@H](CCCCNC(C)C)NC(=O)[C@H](Cc3ccc(O)cc3)NC2=O)cc1 [[^68Ga]Ga-BL34L7, metal not drawn] (K(X6)Y[Lys(iPr)][dR][2Nal][dA][dE][Lys(iPr)]-NH2; lactam N-7)	tissue uptake at 1 h	1.75 %ID/g
CC(C)NCCCC[C@H](NC(=O)[C@H]1CCC(=O)N[C@@H](CCCCNC(=O)[C@H](CS(=O)(=O)O)NC(=O)CN2CCN(CC(=O)O)CCN(CC(=O)O)CCN(CC(=O)O)CC2)C(=O)N[C@@H](Cc2ccc(O)cc2)C(=O)N(C)[C@@H](CCCCNC(C)C)C(=O)N[C@H](CCCNC(=N)N)C(=O)N[C@@H](Cc2ccc3ccccc3c2)C(=O)N[C@H](C)C(=O)N1)C(N)=O [[^68Ga]Ga-BL34N1, metal not drawn] (K([Cya-DOTA])Y[NMeLys(iPr)][dR][2Nal][dA][dE][Lys(iPr)]-NH2; lactam N-7)	tissue uptake at 1 h	0.44 %ID/g

From here, focus on the item given below.
Sure, the documented tissue uptake at 1 h for CC(C)NCCCC[C@H](NC(=O)[C@H]1CCC(=O)N[C@@H](CCCCNC(=O)[C@H](CCCCNC(=O)[C@H](CS(=O)(=O)O)NC(=O)CN2CCN(CC(=O)O)CCN(CC(=O)O)CCN(CC(=O)O)CC2)NC(=O)CNC(=O)CCCc2ccc(Cl)cc2)C(=O)N[C@@H](Cc2ccc(O)cc2)C(=O)N[C@@H](CCCCNC(C)C)C(=O)N[C@H](CCCNC(=N)N)C(=O)N[C@@H](Cc2ccc3ccccc3c2)C(=O)N[C@H](C)C(=O)N1)C(N)=O [[68Ga]Ga-BL34T1, metal not drawn] (K(X4)Y[Lys(iPr)][dR][2Nal][dA][dE][Lys(iPr)]-NH2; lactam N-7) is 9.23 %ID/g

----------
protocol.details: in vivo
Parameters: species or system mice
measurement.setup: male, NOD.Cg-Rag1tm1Mom Il2rgtm1Wjl/SzJ (NRG), mouse, iv, total radioactivity, Biodistribution: Bone
Where a SMILES comes first, the peptide text is derived from it. Bridges are numbered along the chain shown (N, C = ends). [ ]: non-standard residue; d: D form. The star is where a group is joined. X3 = O=C(O)CN1CCN(CC(=O)O)CCN(CC(=O)N[C@@H](CS(=O)(=O)O)C(=O)N[C@@H](CCCCNC(=O)CCCc2ccc(Br)cc2)C(=O)*)CCN(CC(=O)O)CC1; X5 = O=C(O)CN1CCN(CC(=O)O)CCN(CC(=O)N[C@@H](CS(=O)(=O)O)C(=O)N[C@@H](CCCCNC(=O)CCCc2ccc(Cl)cc2)C(=O)*)CCN(CC(=O)O)CC1; X1 = O=C(O)CN1CCN(CC(=O)O)CCN(CC(=O)N[C@@H](CS(=O)(=O)O)C(=O)N[C@@H](CCCCNC(=O)CCCc2ccc(I)cc2)C(=O)*)CCN(CC(=O)O)CC1; 2Nal = N[C@@H](Cc1ccc2ccccc2c1)C(=O)O; Lys(iPr) = CC(C)NCCCC[C@H](N)C(=O)O
I'd appreciate it if you could supply tissue uptake at 3 h values for the items below.
One number for each entry, in %ID/g.

Use these answered entries as a reference point.
compound	tissue uptake at 3 h (%ID/g)
CC(C)NCCCC[C@H](NC(=O)[C@H]1CCC(=O)N[C@@H](CCCCNC(=O)[C@H](CCCCNC(=O)CCCc2ccc(I)cc2)NC(=O)[C@H](CS(=O)(=O)O)NC(=O)CN2CCN(CC(=O)O)CCN(CC(=O)O)CCN(CC(=O)O)CC2)C(=O)N[C@@H](Cc2ccc(O)cc2)C(=O)N[C@@H](CCCCNC(C)C)C(=O)N[C@H](CCCNC(=N)N)C(=O)N[C@@H](Cc2ccc3ccccc3c2)C(=O)N[C@H](C)C(=O)N1)C(N)=O [[^68Ga]Ga-BL34L11, metal not drawn] (K(X1)Y[Lys(iPr)][dR][2Nal][dA][dE][Lys(iPr)]-NH2; lactam N-7)	1.23
CC(C)NCCCC[C@H](NC(=O)[C@H]1CCC(=O)N[C@@H](CCCCNC(=O)[C@H](CCCCNC(=O)CCCc2ccc(Br)cc2)NC(=O)[C@H](CS(=O)(=O)O)NC(=O)CN2CCN(CC(=O)O)CCN(CC(=O)O)CCN(CC(=O)O)CC2)C(=O)N[C@@H](Cc2ccc(O)cc2)C(=O)N[C@@H](CCCCNC(C)C)C(=O)N[C@H](CCCNC(=N)N)C(=O)N[C@@H](Cc2ccc3ccccc3c2)C(=O)N[C@H](C)C(=O)N1)C(N)=O [[^177Lu]Lu-BL34L20, metal not drawn] (K(X3)Y[Lys(iPr)][dR][2Nal][dA][dE][Lys(iPr)]-NH2; lactam N-7)	0.78

From here, focus on the item given below.
Sure, the documented tissue uptake at 3 h for CC(C)NCCCC[C@H](NC(=O)[C@H]1CCC(=O)N[C@@H](CCCCNC(=O)[C@H](CCCCNC(=O)CCCc2ccc(Cl)cc2)NC(=O)[C@H](CS(=O)(=O)O)NC(=O)CN2CCN(CC(=O)O)CCN(CC(=O)O)CCN(CC(=O)O)CC2)C(=O)N[C@@H](Cc2ccc(O)cc2)C(=O)N[C@@H](CCCCNC(C)C)C(=O)N[C@H](CCCNC(=N)N)C(=O)N[C@@H](Cc2ccc3ccccc3c2)C(=O)N[C@H](C)C(=O)N1)C(N)=O [[^68Ga]Ga-BL34L16, metal not drawn] (K(X5)Y[Lys(iPr)][dR][2Nal][dA][dE][Lys(iPr)]-NH2; lactam N-7) is 2.01

----------
I'd appreciate it if you could supply tissue uptake at 24 h values for the items below.
protocol.details: in vivo
Design: species or system mice
measurement.setup: male, NOD.Cg-Rag1tm1Mom Il2rgtm1Wjl/SzJ (NRG), mouse, iv, total radioactivity, Biodistribution: Brain
Where a SMILES comes first, the peptide text is derived from it. Bridges are numbered along the chain shown (N, C = ends). [ ]: non-standard residue; d: D form. The star is where a group is joined. X3 = O=C(O)CN1CCN(CC(=O)O)CCN(CC(=O)N[C@@H](CS(=O)(=O)O)C(=O)N[C@@H](CCCCNC(=O)CCCc2ccc(Br)cc2)C(=O)*)CCN(CC(=O)O)CC1; X1 = O=C(O)CN1CCN(CC(=O)O)CCN(CC(=O)N[C@@H](CS(=O)(=O)O)C(=O)N[C@@H](CCCCNC(=O)CCCc2ccc(I)cc2)C(=O)*)CCN(CC(=O)O)CC1; 2Nal = N[C@@H](Cc1ccc2ccccc2c1)C(=O)O; Lys(iPr) = CC(C)NCCCC[C@H](N)C(=O)O
Answers are plain numbers, in %ID/g.

compound	assay.result
CC(C)NCCCC[C@H](NC(=O)[C@H]1CCC(=O)N[C@@H](CCCCNC(=O)[C@H](CCCCNC(=O)CCCc2ccc(Br)cc2)NC(=O)[C@H](CS(=O)(=O)O)NC(=O)CN2CCN(CC(=O)O)CCN(CC(=O)O)CCN(CC(=O)O)CC2)C(=O)N[C@@H](Cc2ccc(O)cc2)C(=O)N[C@@H](CCCCNC(C)C)C(=O)N[C@H](CCCNC(=N)N)C(=O)N[C@@H](Cc2ccc3ccccc3c2)C(=O)N[C@H](C)C(=O)N1)C(N)=O [[^177Lu]Lu-BL34L20, metal not drawn] (K(X3)Y[Lys(iPr)][dR][2Nal][dA][dE][Lys(iPr)]-NH2; lactam N-7)	0.06

From here, focus on the item given below.
Sure, the documented tissue uptake at 24 h for CC(C)NCCCC[C@H](NC(=O)[C@H]1CCC(=O)N[C@@H](CCCCNC(=O)[C@H](CCCCNC(=O)CCCc2ccc(I)cc2)NC(=O)[C@H](CS(=O)(=O)O)NC(=O)CN2CCN(CC(=O)O)CCN(CC(=O)O)CCN(CC(=O)O)CC2)C(=O)N[C@@H](Cc2ccc(O)cc2)C(=O)N[C@@H](CCCCNC(C)C)C(=O)N[C@H](CCCNC(=N)N)C(=O)N[C@@H](Cc2ccc3ccccc3c2)C(=O)N[C@H](C)C(=O)N1)C(N)=O [[^177Lu]Lu-BL34L11, metal not drawn] (K(X1)Y[Lys(iPr)][dR][2Nal][dA][dE][Lys(iPr)]-NH2; lactam N-7) is 0.18

Cited source: patent US20250242064A1
